- System: HT-1080
- method: Modulatory profiling: Alamar Blue viability, lethal compound cotreated with death modulator (EC50, AUC)
- Format: cell-based
- Design: unit not given beside the values
- assay.conditions: HT-1080, modulator ActD
Use -0.008 as the dividing line for AUC HT.ActD, with the line itself on the Satisfied side and lower values as Not satisfied.

INSERT INTO assay_data (compound, target_under_test, class_name) VALUES
  ('COc1c2c(cc3c1C(CC(=O)/C=C/c1ccccc1)[N+](C)(C)CC3)OCO2 (stereo not drawn)', 'HT-1080', 'Satisfied'),
  ('CC(C(NNC(=O)c1ccc(C(F)(F)F)cc1)c1ccc(Br)cc1)[N+](=O)[O-] (stereo not drawn)', 'HT-1080', 'Satisfied'),
  ('COc1cc2c(c(OC)c1OC)-c1ccc(OC)c(=O)cc1[C@@H](NC(C)=O)CC2', 'HT-1080', 'Satisfied'),
  ('C=C(C)[C@H]1Cc2c(ccc3c2O[C@@H]2COc4cc(OC)c(OC)cc4[C@@H]2C3=O)O1', 'HT-1080', 'Satisfied'),
  ('O=C1c2ccccc2-c2onc3ccc(Oc4ccccc4)c1c23', 'HT-1080', 'Not satisfied'),
  ('COc1ccc(C(=O)C(CN2CCCC2)c2ccccc2)cc1 (stereo not drawn)', 'HT-1080', 'Satisfied'),
  ('Nc1ccccc1NC(=O)c1ccc(CNC(=O)OCc2cccnc2)cc1', 'HT-1080', 'Not satisfied'),
  ('Cc1ccc(O)c(/N=C/C=C/c2cccc(Br)c2)c1', 'HT-1080', 'Satisfied'),
  ('O=P(Oc1ccccc1)(Oc1ccccc1)O[C@@H]1C=CS(=O)(=O)C1', 'HT-1080', 'Satisfied'),
  ('CC1=CC(C)(C)Nc2ccc(OC(=O)c3cccnc3)cc21', 'HT-1080', 'Satisfied'),
  ('O=S1(=O)Nc2c(ccc3cccnc23)-c2ccccc21', 'HT-1080', 'Satisfied'),
  ('COc1cccc(-n2nnnc2S(C)(=O)=O)c1', 'HT-1080', 'Satisfied'),
  ('C[C@H]1CCC[C@]2(C)C[C@H]3OC(=O)[C@H](CN4CCCC4)[C@H]3C=C12', 'HT-1080', 'Satisfied'),
  ('CCc1ccc(/C=C2/SC(=O)N(CCC(C)NCCCN3CCOCC3)C2=O)cc1 (stereo not drawn)', 'HT-1080', 'Not satisfied'),
  ('[O-][N+]1=c2ccc(Nc3ccccc3)cc2=NC12CCCCC2', 'HT-1080', 'Not satisfied'),
  ('O=c1c(Cl)c(Cl)cnn1-c1ccc(Cl)cc1', 'HT-1080', 'Satisfied'),
  ('C[S+]([O-])c1nc(-c2ccc(Br)cc2)cc(-c2ccccc2)c1C#N (stereo not drawn)', 'HT-1080', 'Not satisfied'),
  ('C/C(=N\Nc1ncc(Cl)cc1Cl)c1ccccn1', 'HT-1080', 'Satisfied');
